- ASSAY_METHOD_TEXT: Tested for the stability in water after 24h, activity expressed as percentage hydrolysis
- Type: physicochemical
- EXPERIMENTAL_PARAMETERS: read-out: Hydrolysis
PARAMETER_MEASURED: degraded at 24 h (%)
API: value field is a number in %; no unit string.

IN: Could you please provide reported degraded at 24 h for NC1CCc2cc(OC(=O)c3ccccc3)c(OC(=O)c3ccccc3)cc2C1 (centres undefined) ? Thanks!
OUT: 0.06

IN: For the compound CC(=O)Oc1cc2c(cc1OC(C)=O)CC(N)CC2 (centres undefined) , give its measured degraded at 24 h value.
OUT: 3.74

IN: // Input: CC(C)(C)C(=O)Oc1cc2c(cc1OC(=O)C(C)(C)C)CC(N)CC2 (centres undefined) . Output its degraded at 24 h only.
OUT: 0.02

IN: Retrieve degraded at 24 h measured for CC(C)C(=O)Oc1cc2c(cc1OC(=O)C(C)C)CC(N)CC2 (centres undefined) and print it.
OUT: 0.23

Reference for the values: ChEMBL document CHEMBL1122120
